target entity: T1, HNRNPH1 full-length (UniProt P31943 1-449)
T1 sequence: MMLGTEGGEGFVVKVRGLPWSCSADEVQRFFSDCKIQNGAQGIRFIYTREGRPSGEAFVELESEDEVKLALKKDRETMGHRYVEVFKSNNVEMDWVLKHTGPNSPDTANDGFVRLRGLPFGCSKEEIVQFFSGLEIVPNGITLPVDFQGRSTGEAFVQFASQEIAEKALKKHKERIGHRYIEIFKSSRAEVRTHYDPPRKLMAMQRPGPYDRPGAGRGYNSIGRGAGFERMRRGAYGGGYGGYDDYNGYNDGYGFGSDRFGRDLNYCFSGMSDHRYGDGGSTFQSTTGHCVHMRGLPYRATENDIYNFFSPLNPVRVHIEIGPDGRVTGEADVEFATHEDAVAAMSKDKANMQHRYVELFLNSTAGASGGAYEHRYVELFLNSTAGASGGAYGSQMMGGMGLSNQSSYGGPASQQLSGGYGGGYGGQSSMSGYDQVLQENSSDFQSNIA
assay comment: BLI; 150 mM KCl (G4); BLI: 10 mM Tris-HCl pH 7.4, 150 mM KCl, 0.005% P-20, 1 mM EDTA; EMSA: 10 mM Tris-HCl pH 7.4, 1 mM EDTA, 150 mM KCl, room temp, 3 nM RNA; FRET: same Tris/EDTA with 25 mM KCl, room temp
conditions used: protein: recombinant; tags: FLAG; label: 5'-biotin; parallel two-tier G4, intramolecular
Catalogue of Kd readings, one per entry.

>  <binder>
GGGCGGGGAGGAGGACGCGGUGGAAUGGG (structured_RNA) [rG3]

>  <units of measure>
nM

>  <Kd>
1.39

$$$$
>  <binder>
ACCGGGGCAGGGGAAGAGGGGGAUU (structured_RNA) [rG1]

>  <units of measure>
nM

>  <Kd>
1.08

$$$$
